- ASSAY_EXPLANATION: Therapeutic index, ratio of EC50 for human RBC hemolytic activity to MIC for Staphylococcus aureus ATCC 25923
- CONDITION_PARAMETERS: human red blood cells (RBC), read-out: TI
OBSERVED_PROPERTY: selectivity ratio
Lab note: jot down the number only; don't add units.

Input line: Which selectivity ratio value is on record for CN(C)CCN1CCN(C(=O)C(CN)(Cc2ccc(C(F)(F)F)cc2)Cc2ccc(C(F)(F)F)cc2)CC1.O=C(O)C(F)(F)F.O=C(O)C(F)(F)F ?
Output line: 25

Input line: Now this one: CN(C)CCN1CCN(C(=O)C(CN)(Cc2ccc3ccccc3c2)Cc2ccc3ccccc3c2)CC1.O=C(O)C(F)(F)F.O=C(O)C(F)(F)F
Output line: 20

Input line: Now this one: CN(C)CCNC(=O)C(CN)(Cc1ccc(C(F)(F)F)cc1)Cc1ccc(C(F)(F)F)cc1.O=C(O)C(F)(F)F.O=C(O)C(F)(F)F
Output line: 33

Input line: Now this one: CN(C)CCNC(=O)C(CN)(Cc1ccc(C(C)(C)C)cc1)Cc1ccc(C(C)(C)C)cc1.O=C(O)C(F)(F)F.O=C(O)C(F)(F)F
Output line: 37

Input line: Now this one: NCCNC(=O)C(CN)(CCCc1ccccc1)CCCc1ccccc1.O=C(O)C(F)(F)F.O=C(O)C(F)(F)F
Output line: 19

Input line: Now this one: CN1CCN(C(=O)C(CN)(Cc2ccc(C(F)(F)F)cc2)Cc2ccc(C(F)(F)F)cc2)CC1.O=C(O)C(F)(F)F.O=C(O)C(F)(F)F
Output line: 11

Input line: Now this one: NCCNC(=O)C(CN)(Cc1ccc2ccccc2c1)Cc1ccc2ccccc2c1.O=C(O)C(F)(F)F.O=C(O)C(F)(F)F
Output line: 117

Input line: Now this one: NCCNC(=O)C(CN)(Cc1ccc(C(F)(F)F)cc1)Cc1ccc(C(F)(F)F)cc1.O=C(O)C(F)(F)F.O=C(O)C(F)(F)F
Output line: 28

Input line: Now this one: CN(C)CCNC(=O)C(CN)(CCCc1ccccc1)CCCc1ccccc1.O=C(O)C(F)(F)F.O=C(O)C(F)(F)F
Output line: 9.1

Input line: Now this one: CN(C)CCN1CCN(C(=O)C(CN)(Cc2ccc(C(C)(C)C)cc2)Cc2ccc(C(C)(C)C)cc2)CC1.O=C(O)C(F)(F)F.O=C(O)C(F)(F)F
Output line: 26

Input line: Now this one: CN1CCN(C(=O)C(CN)(Cc2ccc3ccccc3c2)Cc2ccc3ccccc3c2)CC1.O=C(O)C(F)(F)F.O=C(O)C(F)(F)F
Output line: 20

Input line: Now this one: CC(C)(C)c1ccc(CC(CN)(Cc2ccc(C(C)(C)C)cc2)C(=O)NCCN)cc1.O=C(O)C(F)(F)F.O=C(O)C(F)(F)F
Output line: 4.7

Input line: Now this one: CN(C)CCNC(=O)C(CN)(Cc1ccc2ccccc2c1)Cc1ccc2ccccc2c1.O=C(O)C(F)(F)F.O=C(O)C(F)(F)F
Output line: 16

Input line: Now this one: CN1CCN(C(=O)C(CN)(Cc2ccc(C(C)(C)C)cc2)Cc2ccc(C(C)(C)C)cc2)CC1.O=C(O)C(F)(F)F.O=C(O)C(F)(F)F
Output line: 23
